- Test system: Trypanosoma cruzi
- protocol_details: Antitrypanosomal activity against amastigote and trypomastigote forms of Trypanosoma cruzi Tulahuen expressing beta-galactosidase gene infected in mouse L-929 cells assessed as inhibition of parasite growth after 7 days by colorimetric betagalactosidase assay
- Assay type: functional, organism-based
- condition_context: L929, 168 h
For each entry below, report its pIC50 value.
One number for each entry, as −log10 of the molar value.

Cc1ccc(/C(COc2ccc(Br)cc2)=N\NC(N)=S)cc1 ... 5.10
CCc1ccc(OC/C(=N\NC(N)=S)c2ccc(Br)cc2)cc1 ... 5.19
NC(=S)N/N=C(\COc1ccc(Cl)cc1)c1ccc(Br)cc1 ... 4.95
COc1cccc(OC/C(=N\NC(N)=S)c2ccc(Br)cc2)c1 ... 5.00

Q: Form: Entry = `NC(=S)N/N=C(/COc1ccc(Br)cc1)c1cccc2ccccc12` | System = Trypanosoma cruzi | pIC50 = ____
Ans: 5.32
